- tested.system: UniProt Q8TDU6
- test.name: Human AXOR109/Melanophore Assay
- reported.conditions: melanophore assay, AXOR109 transfected melanophores
measured.property: EC50

Fill in: EC50 of COc1ccc(S(=O)(=O)N2C[C@H](C)N(S(=O)(=O)c3ccc(OC)c(OC)c3)C[C@H]2C)cc1OC is ___
1260 to 10000 nM

Fill in: EC50 of COc1ccc(S(=O)(=O)N(C)CCN(C2CC2)S(=O)(=O)c2ccc(OC)c(OC)c2)cc1OC is ___
126 to 1000 nM

---

- tested.system: UniProt:Q8TDU6
- test.name: Human AXOR109/Melanophore Assay
- reported.conditions: melanophore assay, AXOR109 transfected melanophores
measured.property: EC50

Answered cases to consult:
compound	EC50
COc1ccc(S(=O)(=O)N2CCC(=O)N(S(=O)(=O)c3ccc(OC)c(OC)c3)CC2)cc1OC [Example 28]	0.126 to 1 µM
COc1ccc(S(=O)(=O)N2CCN(S(=O)(=O)c3ccc(OC)c(OC)c3)C(C)(C)C2)cc1OC [Example 50]	0.126 to 1 µM
COc1ccc(S(=O)(=O)N2CC[C@@H](N(C)S(=O)(=O)c3ccc(OC)c(OC)c3)C2)cc1OC [Example 85]	0.126 to 1 µM
COc1ccc(S(=O)(=O)N(C)CCN(C)S(=O)(=O)c2ccc(OC)c(OC)c2)cc1 [Example 15]	0.126 to 1 µM
COc1ccc(S(=O)(=O)N(C)C[C@H]2CCCN2S(=O)(=O)c2ccc(OC)c(OC)c2)cc1OC [Example 97]	< 0.126 µM

Fill in: EC50 of COc1ccc(S(=O)(=O)N2C[C@@H](C)N(S(=O)(=O)c3ccc(OC)c(OC(F)(F)F)c3)[C@@H](C)C2)cc1OC [Example 36] is ___
0.126 to 1 µM

Fill in: EC50 of COc1ccc(S(=O)(=O)NCC(C)N(C)S(=O)(=O)c2ccc(OC)c(OC)c2)cc1OC (stereo not drawn) [Example 66] is ___
1.26 to 10 µM

---

- tested.system: AXOR109 (Homo sapiens, UniProt Q8TDU6)
- Sequence (Q8TDU6 1-330): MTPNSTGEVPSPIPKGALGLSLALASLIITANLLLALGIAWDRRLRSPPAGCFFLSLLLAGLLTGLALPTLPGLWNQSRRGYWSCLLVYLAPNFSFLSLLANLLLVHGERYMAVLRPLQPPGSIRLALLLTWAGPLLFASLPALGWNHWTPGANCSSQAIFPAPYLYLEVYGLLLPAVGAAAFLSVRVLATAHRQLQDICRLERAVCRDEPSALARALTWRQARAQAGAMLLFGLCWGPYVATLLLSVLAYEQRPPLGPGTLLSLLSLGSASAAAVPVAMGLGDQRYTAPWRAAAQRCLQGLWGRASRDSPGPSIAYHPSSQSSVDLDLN
- test.name: Human AXOR109/Melanophore Assay
- reported.conditions: melanophore assay, AXOR109 transfected melanophores
We begin with a simple list: items and their reported EC50.

compound	measured.property	result
COc1ccc(S(=O)(=O)N2C[C@H](C)N(S(=O)(=O)c3ccc(OS(C)(=O)=O)c(OC)c3)C[C@@H]2C)cc1OC	EC50	1260 to 10000 nM
COc1ccc(S(=O)(=O)N2C[C@@H](C)N(S(=O)(=O)c3ccc(OC)c(OC)c3)[C@@H](C)C2)cc1OC [Example 54]	EC50	126 to 1000 nM

Fill in: EC50 of COc1ccc(S(=O)(=O)N2CCN(S(=O)(=O)c3ccc(OC)c(OC)c3)C2=O)cc1OC is ___
1260 to 10000 nM

Fill in: EC50 of COc1ccc(S(=O)(=O)N2C[C@@H](C)N(S(=O)(=O)c3ccc4oc(=O)ccc4c3)[C@@H](C)C2)cc1OC is ___
1260 to 10000 nM

Fill in: EC50 of COc1ccc(S(=O)(=O)N2CCN(S(=O)(=O)c3ccc(OC)c(OC)c3)CC(=O)C2)cc1OC is ___
1260 to 10000 nM

Fill in: EC50 of COc1ccc(S(=O)(=O)N2CCCCC(N(C)S(=O)(=O)c3ccc(OC)c(OC)c3)C2)cc1OC (stereo not shown) is ___
1260 to 10000 nM

Fill in: EC50 of COc1ccc(S(=O)(=O)N(C)C(C)C(C)N(C)S(=O)(=O)c2ccc(OC)c(OC)c2)cc1OC (stereo not shown) is ___
126 to 1000 nM

---

We begin with a simple list: items and their reported Emax.
- tested.system: AXOR109 (Homo sapiens, UniProt Q8TDU6)
- Construct: expressed in transfected cells; host or cells: melanophore cells, transfected by electroporation
- Sequence (Q8TDU6 1-330): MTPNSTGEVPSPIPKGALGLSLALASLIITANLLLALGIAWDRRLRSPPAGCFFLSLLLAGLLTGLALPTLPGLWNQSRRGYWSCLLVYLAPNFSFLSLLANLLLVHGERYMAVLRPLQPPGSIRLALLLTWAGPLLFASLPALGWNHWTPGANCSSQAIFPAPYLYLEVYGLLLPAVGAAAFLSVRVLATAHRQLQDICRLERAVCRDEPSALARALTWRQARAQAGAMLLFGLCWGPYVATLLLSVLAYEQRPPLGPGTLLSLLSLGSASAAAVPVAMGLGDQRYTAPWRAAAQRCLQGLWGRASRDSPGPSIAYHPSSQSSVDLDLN
- test.name: Human AXOR109/Melanophore Assay
- Format: cell-based
- reported.conditions: 1 h, melanophore assay, normalized to alpha-MSH system max

compound	Emax
COc1ccc(S(=O)(=O)N2CC(C)N(S(=O)(=O)c3ccc(OC)c(OC)c3)CC2C)cc1OC (stereo not shown)	51 to 75%
COc1ccc(S(=O)(=O)NCCN(C)S(=O)(=O)c2ccc(OC)c(OC)c2)cc1OC	51 to 75%
COc1ccc(S(=O)(=O)N2CCCN(S(=O)(=O)c3ccc(OC)c(OC)c3)CC2)cc1F	0 to 50%
COc1ccc(S(=O)(=O)NCCNS(=O)(=O)c2ccc(OC)c(OC)c2)cc1OC	76 to 100%

Fill in: Emax of COc1ccc(S(=O)(=O)N2C[C@H](C)N(S(=O)(=O)c3ccc(OC)c(OC)c3)[C@@H](C)C2)cc1OC is ___
51 to 75%

Fill in: Emax of COc1ccc(S(=O)(=O)N(C)CC(C)N(C)S(=O)(=O)c2ccc(OC)c(OC)c2)cc1OC (stereo not shown) is ___
51 to 75%

Fill in: Emax of COc1ccc(S(=O)(=O)N2CCN(S(=O)(=O)c3ccc(OC)c(OC)c3)CC2)cc1 is ___
0 to 50%

Fill in: Emax of COc1ccc(S(=O)(=O)N2CCC(N(CC(C)C)S(=O)(=O)c3ccc(OC)c(OC)c3)C2)cc1OC (stereo not shown) is ___
51 to 75%

Fill in: Emax of COc1ccc(S(=O)(=O)N2CCN(S(=O)(=O)c3ccc(OC)c(OC)c3)[C@@H](C)C2)cc1OC is ___
76 to 100%

Fill in: Emax of COc1ccc(S(=O)(=O)N2C[C@H](C)N(S(=O)(=O)c3ccc(OC)c(OC)c3)C[C@@H]2C)cc1 is ___
> 100%

---

- tested.system: AXOR109 (Homo sapiens, UniProt Q8TDU6)
- Construct: expressed in transfected cells; host or cells: melanophore cells, transfected by electroporation
- Sequence (Q8TDU6 1-330): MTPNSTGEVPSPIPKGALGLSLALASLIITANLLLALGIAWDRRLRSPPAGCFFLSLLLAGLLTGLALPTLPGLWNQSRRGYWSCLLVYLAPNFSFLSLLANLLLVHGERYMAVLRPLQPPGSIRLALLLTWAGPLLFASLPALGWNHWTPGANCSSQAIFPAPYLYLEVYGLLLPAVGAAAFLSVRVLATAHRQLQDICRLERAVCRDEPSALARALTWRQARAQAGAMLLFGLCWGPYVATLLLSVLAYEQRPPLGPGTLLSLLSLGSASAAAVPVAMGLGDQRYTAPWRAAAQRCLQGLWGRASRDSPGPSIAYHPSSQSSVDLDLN
- test.name: Human AXOR109/Melanophore Assay
- Format: cell-based
- reported.conditions: 1 h, melanophore assay, normalized to alpha-MSH system max
We begin with a simple list: items and their reported Emax.

Answered cases to consult:
compound	tested.system	Emax
CCc1cc(S(=O)(=O)N2C[C@H](C)N(S(=O)(=O)c3ccc(OC)c(OC)c3)C[C@@H]2C)ccc1OC	AXOR109 (Homo sapiens, UniProt Q8TDU6)	76 to 100%
COc1ccc(S(=O)(=O)N2C[C@@H](C)N(S(=O)(=O)c3ccc(OC)c(OC)c3)[C@@H](C)C2)cc1OC	AXOR109 (Homo sapiens, UniProt Q8TDU6)	> 100%
COc1ccc(S(=O)(=O)N2CCN(S(=O)(=O)c3ccc(OC)c(OC)c3)c3ccccc32)cc1OC	AXOR109 (Homo sapiens, UniProt Q8TDU6)	51 to 75%
COc1ccc(S(=O)(=O)N2CCC(N(CC3CCC3)S(=O)(=O)c3ccc(OC)c(OC)c3)C2)cc1OC (stereo not drawn)	AXOR109 (Homo sapiens, UniProt Q8TDU6)	76 to 100%

Reported Emax for AXOR109 (Homo sapiens, UniProt Q8TDU6), given COc1ccc(S(=O)(=O)N2C[C@@H](C)N(S(=O)(=O)c3ccc4oc(=O)ccc4c3)[C@@H](C)C2)cc1OC ?
0 to 50%

Reported Emax for AXOR109 (Homo sapiens, UniProt Q8TDU6), given COc1ccc(S(=O)(=O)N(C[C@H]2CCCN2S(=O)(=O)c2ccc(OC)c(OC)c2)C(C)C)cc1OC ?
> 100%

Reported Emax for AXOR109 (Homo sapiens, UniProt Q8TDU6), given COc1ccc(S(=O)(=O)N2CCN(S(=O)(=O)c3ccc(-c4cnco4)cc3)CC2)cc1OC ?
51 to 75%

Reported Emax for AXOR109 (Homo sapiens, UniProt Q8TDU6), given COc1ccc(S(=O)(=O)N(C)CCN(C)S(=O)(=O)c2ccc3c(c2)OCCO3)cc1OC ?
51 to 75%

Reported Emax for AXOR109 (Homo sapiens, UniProt Q8TDU6), given COc1ccc(S(=O)(=O)N2CCC(=O)N(S(=O)(=O)c3ccc(OC)c(OC)c3)CC2)cc1OC ?
51 to 75%

Reported Emax for AXOR109 (Homo sapiens, UniProt Q8TDU6), given COc1ccc(S(=O)(=O)N2CCN(S(=O)(=O)c3ccc(OC)c(OC)c3)C(C)C2)cc1OC (stereo not drawn) ?
51 to 75%

Reported Emax for AXOR109 (Homo sapiens, UniProt Q8TDU6), given CCC1CN(S(=O)(=O)c2ccc(OC)c(OC)c2)C(C)CN1S(=O)(=O)c1ccc(OC)c(OC)c1 (stereo not drawn) ?
51 to 75%

Reported Emax for AXOR109 (Homo sapiens, UniProt Q8TDU6), given COc1ccc(S(=O)(=O)N2CCN(S(=O)(=O)c3ccc4c(c3)OCCO4)CC2)cc1OC ?
51 to 75%

Reported Emax for AXOR109 (Homo sapiens, UniProt Q8TDU6), given COc1ccc(S(=O)(=O)N(C)CCN(C)S(=O)(=O)c2ccc(OC)c(OC)c2)cc1OC ?
51 to 75%

Reported Emax for AXOR109 (Homo sapiens, UniProt Q8TDU6), given COc1ccc(S(=O)(=O)N2CC[C@@H](N(C)S(=O)(=O)c3ccc(OC)c(OC)c3)C2)cc1OC ?
51 to 75%

Reported Emax for AXOR109 (Homo sapiens, UniProt Q8TDU6), given COc1ccc(S(=O)(=O)N2CCN(S(=O)(=O)c3ccc(OC)c(OC)c3)[C@@H](C)[C@H]2C)cc1OC ?
51 to 75%
